Taken from PubChem BioAssay (NCI).

# Test system: A498 renal
# Experiment summary: NCI tumour cell line growth inhibition, 48 h
# if value of TGI reaches 30 µM, tag label 1; if it stays below, tag label 0

Exam item: Threshold query (TGI >= 30 µM) on COc1ccc(-c2nc3ccccc3c(=O)[nH]2)c(OC)c1
Marked response: label 1

Exam item: Is TGI at least 30 µM? Consider N#Cc1c(-c2ccc(Cl)cc2)cc(-c2ccc(Nc3ccnc4cc(C(F)(F)F)ccc34)cc2)nc1N
Marked response: label 1

Exam item: Could you tell me if the measured TGI of N#Cc1cccc(N2C(=O)c3ccc(C(=O)c4ccc5c(c4)C(=O)N(c4cccc(C#N)c4)C5=O)cc3C2=O)c1 reaches 30 µM or more?
Marked response: label 1

Exam item: Does TGI meet or surpass 30 µM for C[N+](C)(C)CC(=O)N/N=C(/Cc1nc2ccc(Cl)cc2[nH]c1=O)C1=NS(=O)(=O)c2cc(S(N)(=O)=O)c(Cl)cc2N1 ?
Marked response: label 1

Exam item: Decide: is the reported value of TGI for O=C(N=Nc1ccc(Br)cc1)NNc1ccc(Br)cc1 equal to or greater than 30 µM?
Marked response: label 1

Exam item: Given O=C(Nc1ccccc1Cl)c1cc(S(=O)(=O)Nc2n[nH]c(=O)n2-c2ccccc2)c(S)cc1Cl , state whether its TGI is at least 30 µM.
Marked response: label 1

Exam item: Could you please find out whether CCCCCc1cc2cc3c(c(O)c2c(=O)[nH]1)C1(CC3)C(O)=c2c(=O)c3c(=O)cc(OC)c(=O)c=3c(=O)c2=C1O (centres undefined) has TGI that meets 30 µM or exceeds it?
Marked response: label 0

Exam item: Decide: TGI of C=CS(=O)(=O)c1c2cc(OC)ccc2nc2ccc(OC)cc12 >= 30 µM?
Marked response: label 0

Exam item: decide whether the reported TGI for CCC1=C(C)c2cc3[n-]c(cc4nc(c(C=O)c5[n-]c(cc1n2)c(C)c5CC)C(C)=C4CC)c(C)c3CC.[Ni+2] is at least 30 µM.
Marked response: label 1

Exam item: Does TGI meet or surpass 30 µM for O=C1C(=O)c2c(O)ccc(O)c2C(O)=C1Cl ?
Marked response: label 1

Exam item: Record CC1CCN(CCC(=O)CC(c2ccccc2)c2c(O)c3ccccc3oc2=O)CC1 (centres undefined) ; criterion: TGI no lower than 30 µM. Met?
Marked response: label 1

Exam item: Answer whether TGI of COc1cc(/C=C/c2ccc(/C=C/c3cc(OC)c(OC)c(OC)c3)cc2)cc(OC)c1OC is greater than or equal to 30 µM.
Marked response: label 0

Exam item: Entry CC1CN=C(N(C(=O)Nc2ccccc2)c2ccccc2)S1 (centres undefined) : is its TGI no less than 30 µM?
Marked response: label 1

Exam item: Has O=C(O)CSc1ccc2[nH]c3ccccc3c(=O)c2c1 a recorded TGI greater than or equal to 30 µM?
Marked response: label 1

Exam item: decide whether the reported TGI for CN(CC(=O)O)S(=O)(=O)c1ccc(F)cc1 is at least 30 µM.
Marked response: label 1

Exam item: Could you verify whether the entry COc1ccc(/C=C2\N=C(SC)N(C)C2=O)cc1 shows TGI of no less than 30 µM?
Marked response: label 1

Exam item: I'd appreciate it if you could say whether CCOC(=O)C(Cc1ccc([N+](=O)[O-])cc1)NC(=O)CC1c2ccccc2-c2ccccc21 (centres undefined) has TGI at least equal to 30 µM.
Marked response: label 1

Exam item: API: above_or_equal(metric=TGI, cutoff=30 µM) for item C[C@]12C=CC(=O)C=C1[C@@H](F)C[C@H]1[C@@H]3CC[C@](O)(C(=O)CO)[C@@]3(C)C[C@H](O)[C@@]12F
Marked response: label 1

Exam item: Determine whether this molecule has TGI no lower than 30 µM: Nc1nc(=S)c2c(ncn2CC(O)CO)[nH]1 (centres undefined)
Marked response: label 1

Exam item: Kindly determine if TGI recorded for Cc1cnc(Cl)nc1C(C#N)c1nc2ccccc2s1 (centres undefined) is above or exactly 30 µM.
Marked response: label 1

Exam item: API: above_or_equal(metric=TGI, cutoff=30 µM) for item CCOC(=O)C1=C(N)CCC1C (centres undefined)
Marked response: label 1

Exam item: API: above_or_equal(metric=TGI, cutoff=30 µM) for item CCCCCC(=O)N[C@H]1CCc2cc(OC)c(OC)c(OC)c2-c2ccc(SC)c(=O)cc21
Marked response: label 0

Exam item: Check the entry Cc1ncc(CO)c(C=NCCCCCCN=Cc2c(CO)cnc(C)c2[O-])c1[O-].[Cu+2] : does TGI equal or exceed 30 µM?
Marked response: label 1

Exam item: API: above_or_equal(metric=TGI, cutoff=30 µM) for item COC(=O)C(CCC1C=CN(S(=O)(=O)c2ccc(C)cc2)C1)N=Cc1ccccc1 (centres undefined)
Marked response: label 1

Exam item: Test whether the molecule CCCN1C(=O)/C(=C/c2cccc(O)c2)SC1=Nc1ccccc1 records TGI of 30 µM or higher.
Marked response: label 0

Exam item: Tell me whether TGI is at least 30 µM here: Cc1cccc(-c2nnc3s/c(=C\c4ccc5c(c4)OCO5)c(=O)n23)c1
Marked response: label 1

Exam item: Kindly determine if TGI recorded for CCOC(=O)C1N(S(=O)(=O)c2ccc(C)cc2)CCC12c1ccccc1NC2c1ccc(OC)c(OC)c1 (centres undefined) is above or exactly 30 µM.
Marked response: label 1

Exam item: Determine whether measured TGI meets or exceeds 30 µM for O=c1c(O)c(-c2ccccc2)n(O)c2ccc(Cl)cc12
Marked response: label 1

Exam item: Evaluate CCCCCCCc1c(Cl)nc(Cl)nc1Cl : TGI at minimum 30 µM?
Marked response: label 1

Exam item: Form field: TGI at least 30 µM? Entry: O=C1C(=C/C=C2/SC(c3ccccc3)(c3ccccc3)c3ccccc32)C(=O)c2ccccc21
Marked response: label 1

Exam item: Does TGI meet or surpass 30 µM for O=C1c2ccccc2C(=O)c2c1ccc(C(Br)Br)c2Cl ?
Marked response: label 1

Exam item: Does COC(=O)C1CCC(NC(=O)c2csc([C@@H](C[C@H](C(C)C)N(C)C(=O)[C@@H](NC(=O)[C@H]3CCCCN3C)C(C)C)OC(C)=O)n2)CC1 (some centres undefined) have a reported TGI of at least 30 µM?
Marked response: label 0

Exam item: # check: TGI of O=C(COc1cccc(/C=C2/Oc3ccccc3C2=O)c1)Nc1nccs1 is greater than or equal to 30 µM
Marked response: label 1

Exam item: Check if TGI >= 30 µM (inclusive). Item: CCN(CC)CCOc1nc2c3ccc(Cl)cc3nn2c2ccccc12
Marked response: label 0

Exam item: # bool: TGI of Cc1ccc(Nc2nc(C)c(C(=O)CC(=O)C(=O)Nc3ccc(Cl)cc3)s2)cc1 >= 30 µM
Marked response: label 1

Exam item: For this molecule, is measured TGI 30 µM or higher? O=C(Nc1ccccc1)c1cc(S(=O)(=O)Nc2nc3ncccc3[nH]2)c(SSc2cc(Cl)c(C(=O)Nc3ccccc3)cc2S(=O)(=O)Nc2nc3ncccc3[nH]2)cc1Cl
Marked response: label 1

Exam item: hey, is TGI for this one >= 30 µM? CCOC(=O)c1ccc2[nH]c(O)c(C(=Nc3ccc(N(C)C(=O)CN4CCN(C)CC4)cc3)c3ccccc3)c2c1
Marked response: label 0

Exam item: Kindly determine if TGI recorded for O=c1ssc2ncccc12 is above or exactly 30 µM.
Marked response: label 1

Exam item: Say whether O=C(Nc1ccc(Cl)cc1)Nc1ccc(Oc2nncc3ccccc23)cc1 shows TGI of 30 µM or more.
Marked response: label 0

====

# Test system: SF-295 CNS
# Experiment summary: NCI tumour cell line growth inhibition, 48 h
Please provide measured TGI for the entries that follow.
The reply should contain only the number, in µM.

Exam item: State its TGI for this molecule: Cc1cc2cc3c(Cl)c(CCCl)c(C)nc3cc2c(Cl)c1CCCl
Marked response: 35.2

Exam item: Quickly give me recorded TGI for Cc1ccccc1C1=C/C(=C(\SS/C(C(=O)c2ccc(OCC(=O)O)c(Cl)c2Cl)=C2\C=C(c3ccccc3C)SS2)C(=O)c2ccc(OCC(=O)O)c(Cl)c2Cl)SS1
Marked response: 87

Exam item: State its TGI: N#Cc1c(N)nc(NCc2ccccc2)c(C#N)c1-c1ccc(Cl)cc1
Marked response: 34.4

Exam item: Consider the molecule Oc1ccccc1N=Cc1c(O)ccc2ccccc12 and give its recorded TGI.
Marked response: 40.4

Exam item: Give TGI for CCCN1C(=O)/C(=C/c2cccc(O)c2)SC1=Nc1ccc(OC)cc1
Marked response: 23.3

Exam item: Give TGI for the following molecule: COc1ccc2nc3c([N+](=O)[O-])ccc4c3c(c2c1)N(CCCN(C)C)C(=S)N4CCCN(C)C
Marked response: 19.5

Exam item: Entry CC(=O)N1N=C(c2cc(C)ccc2O)CC1c1cccc(Cl)c1 (stereo not given) needs its TGI filled in; supply it.
Marked response: 65

Exam item: Supply recorded TGI for CCCN1C(=O)/C(=C/c2cccc(O)c2)SC1=Nc1ccccc1 here.
Marked response: 83.8

Exam item: Item O=C(Nc1ccc(Cl)cc1)Nc1ccc(Oc2nncc3ccccc23)cc1 : provide TGI
Marked response: 6.27

Exam item: Please report the measured TGI for CC1=NN(c2cccc(Cl)c2)C2(SCC(=O)N2c2nc3ccccc3s2)/C1=C\c1ccccc1 (stereo not given)
Marked response: 81.2

Exam item: Using the record for O=CC1C(Cl)=Nc2nc3ccccc3n2C1c1ccc([N+](=O)[O-])cc1 (stereo not given) , state its measured TGI.
Marked response: 50.7

Exam item: For the molecule OCC#Cc1ccccc1C#CCCCCCCC#Cc1ccccc1C#CCO , give its measured TGI value.
Marked response: 28.6
